Target: full length recombinant Pim-3 protein (Homo sapiens)
Construct: by full length recombinant Pim-1, Pim-2, or Pim-3 protein
Assay: Pim-3 enzyme assay (HTRF, phosphorylation of biotinylated-BAD (S112) peptide)
Details: read-out: Pim3 IC50
OUTCOME_MEASURE: pIC50
Give only the number. pIC50 is defined as minus log10 of concentration in molar units.

-- ask Give recorded pIC50. `CC(C)Oc1cncc(-c2ccc3[nH]cc(-c4csc(-n5ccnc5)n4)c3c2)n1`
-- reply 7.38

-- ask Specify reported pIC50 for the molecule shown: `NC1CCN(c2cncc(-c3n[nH]c4ccc(-c5cccnc5O)cc34)n2)CC1`
-- reply 7.96

-- ask Give the reported value of pIC50 for this record: `O=C(NC1CC1)c1cccc(-c2ccc3[nH]nc(-c4cncc(O[C@@H]5CCCNC5)n4)c3c2)c1`
-- reply 7.85

-- ask Hello, please tell me recorded pIC50 for this one: `O=c1cc(-c2ccc3[nH]nc(-c4cncc(O[C@@H]5CCCNC5)n4)c3c2)c(Cl)c[nH]1`
-- reply 7.52

-- ask Output measured pIC50 for this item: `CC(C)(C)NC(=O)c1ccc(F)c(-c2ccc3[nH]nc(-c4cncc(O[C@@H]5CCCNC5)n4)c3c2)c1`
-- reply 7.66

-- ask Output pIC50 of `CC(C)Oc1cncc(-c2ccc3[nH]cc(-c4csc(-n5ccccc5=O)n4)c3c2)n1`
-- reply 6.69

-- ask Output measured pIC50 for this item: `CCC(=O)Nc1ccc2[nH]cc(-c3cncc(N4CCC(N)CC4)n3)c2c1`
-- reply 6.46

-- ask Look up pIC50 of `O=C(NC1CC1)c1cncc(-c2ccc3[nH]nc(-c4cncc(O[C@@H]5CCCNC5)n4)c3c2)c1` and report it.
-- reply 9.00

-- ask Report pIC50, nothing else, for this molecule: `NC1CCN(c2cncc(-c3n[nH]c4ccc(-c5ccc6ncsc6c5)cc34)n2)CC1`
-- reply 9.00

-- ask Dear colleague, please send me the reported pIC50 for `Nc1ccc2[nH]cc(-c3cncc(N4CCC(N)CC4)n3)c2c1` when you can.
-- reply 5.75

-- ask Supply recorded pIC50 for `COC(=O)c1ccc2[nH]cc(-c3cncc(N4CCC(N)CC4)n3)c2c1` here.
-- reply 8.15

-- ask Find the measured pIC50 of `Fc1cccc(F)c1-c1ccc2[nH]cc(-c3cncc(O[C@@H]4CCCNC4)n3)c2c1` and report it.
-- reply 8.40

-- ask Kindly indicate its recorded pIC50. Item: `CCOc1cccc(-c2ccc3[nH]nc(-c4cncc(N5CCC(N)CC5)n4)c3c2)n1`
-- reply 7.74

-- ask Report measured pIC50; entry is `NC1CCN(c2cncc(-c3n[nH]c4ccc(-c5cccc(F)c5)cc34)n2)CC1`
-- reply 8.52

-- ask Please give measured pIC50 of the following entry: `NC1CCN(c2cncc(-c3n[nH]c4ccc(N5CCCCC5=O)cc34)n2)CC1`
-- reply 6.03

-- ask Report measured pIC50; entry is `CC(C)Oc1nccc(-c2ccc3[nH]nc(-c4cncc(O[C@@H]5CCCNC5)n4)c3c2)n1`
-- reply 7.57

====

Biological target: full length recombinant Pim-2 protein (Homo sapiens, UniProt Q9P1W9)
Construct: by full length recombinant Pim-1, Pim-2, or Pim-3 protein; hexahistidine tag followed by a thrombin cleavage site (N); made in house; host or cells: Sf9 (baculovirus) or E. coli (pET28)
Sequence (Q9P1W9 whole entry): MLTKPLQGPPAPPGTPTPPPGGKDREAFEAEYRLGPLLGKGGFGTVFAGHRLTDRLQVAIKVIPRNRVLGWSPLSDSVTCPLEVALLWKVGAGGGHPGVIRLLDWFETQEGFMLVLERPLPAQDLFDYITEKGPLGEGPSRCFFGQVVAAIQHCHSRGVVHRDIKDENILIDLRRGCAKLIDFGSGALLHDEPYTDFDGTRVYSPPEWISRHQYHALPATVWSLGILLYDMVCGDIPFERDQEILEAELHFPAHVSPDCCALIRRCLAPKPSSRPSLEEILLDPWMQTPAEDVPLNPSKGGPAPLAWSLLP
Experiment: Pim-2 enzyme assay (HTRF, phosphorylation of biotinylated-BAD (S112) peptide)
Format: biochemical
Conditions: read-out: Pim2_IC50
Where a name gives a salt, the structure may show the parent alone.
Labelling: IC50 reported below 90 nM becomes label 1; at or above becomes label 0.

-- ask Report whether reported IC50 is lower than 90 nM (strictly) for O=c1cc(-c2n[nH]c3ccc(-c4ccc(Cl)cc4F)cc23)nc(O[C@@H]2CNCC[C@H]2F)[nH]1 (racemic) [Example 283, trifluoroacetate]
-- reply label 1

-- ask Does `CC(C)Oc1ccc(-c2ccc3[nH]cc(-c4cncc(O[C@@H]5CCCNC5)n4)c3c2)cc1C#N` have IC50 strictly under 90 nM?
-- reply label 0

-- ask Regarding `CN(C)C(=O)c1ccc2[nH]nc(-c3cncc(N[C@@H]4CCCNC4)n3)c2c1` , kindly confirm whether its IC50 is beneath 90 nM.
-- reply label 0

-- ask I wonder whether `c1cc2c(cc1-c1ccc3[nH]cc(-c4cncc(O[C@@H]5CCCNC5)n4)c3c1)OCO2` has IC50 below 90 nM. Can you tell?
-- reply label 1

-- ask Please indicate whether the reported IC50 of `COc1cc(N2CCC(N)CC2)nc(-c2n[nH]c3ccc(-c4c(F)cccc4F)cc23)n1` is strictly below 90 nM.
-- reply label 0

-- ask I wonder whether `CN(C)C(=O)c1ccc2[nH]nc(-c3ccnc(NC4CCNCC4)n3)c2c1` has IC50 below 90 nM. Can you tell?
-- reply label 0

-- ask Problem: For the compound `N#Cc1cccc(F)c1-c1ccc2[nH]nc(-c3cncc(O[C@H]4CNCCC45CC5)n3)c2c1` , is IC50 under 90 nM?
-- reply label 1

-- ask API: query returns whether the compound falls strictly under 90 nM in IC50. Query: `c1cc2[nH]nc(-c3cncc(O[C@H]4CNCCC45CC5)n3)c2cc1C1CCCC1`
-- reply label 1

-- ask Problem: For the compound `COC(=O)c1ccc2[nH]nc(-c3nccc(O[C@@H]4CCCNC4)n3)c2c1` , is IC50 under 90 nM?
-- reply label 0

-- ask Is IC50 strictly under 90 nM for the entry `O=c1cc(-c2n[nH]c3ccc(-c4c(F)cccc4F)cc23)nc(O[C@@H]2CCCNC2)[nH]1` ?
-- reply label 1

-- ask Does Fc1cccc(F)c1-c1ccc2[nH]nc(-c3cncc(OC4C=CCNC4)n3)c2c1 (single isomer, unassigned) [Example 427] have IC50 strictly under 90 nM?
-- reply label 1

-- ask IC50 strictly < 90 nM for this compound? Fc1cccc(F)c1-c1ccc2[nH]nc(-c3cncc(CC4CCCNC4)n3)c2c1 (single isomer, unassigned) [Example 273]
-- reply label 0

-- ask Find out if reported IC50 for CC(O)c1cccc(-c2ccc3[nH]nc(-c4cncc(O[C@@H]5CCCNC5)n4)c3c2)c1 (some centres unmarked) is less than 90 nM
-- reply label 1

-- ask Item `COC(=O)c1ccc2[nH]nc(-c3ccnc(N4CCC(N)CC4)n3)c2c1` : IC50 beneath 90 nM, strictly?
-- reply label 1

-- ask Given the entry `CC(C)Oc1cncc(-c2n[nH]c3ccc(-c4nccc(N5CCOC[C@@H]5C)n4)cc23)n1` , would its reported IC50 be below 90 nM?
-- reply label 0

-- ask Decide: IC50 of `Cn1nccc1-c1ccc2[nH]nc(-c3cncc(O[C@H]4CNCCC45CC5)n3)c2c1` strictly below 90 nM?
-- reply label 0

====

Kindly supply the reported pIC50 values for the records listed here.
Target: full length recombinant Pim-1 protein (Homo sapiens, UniProt P11309)
Construct: by full length recombinant Pim-1, Pim-2, or Pim-3 protein; hexahistidine tag followed by a thrombin cleavage site (N); made in house; host or cells: Sf9 (baculovirus) or E. coli (pET28)
Sequence (P11309 whole entry): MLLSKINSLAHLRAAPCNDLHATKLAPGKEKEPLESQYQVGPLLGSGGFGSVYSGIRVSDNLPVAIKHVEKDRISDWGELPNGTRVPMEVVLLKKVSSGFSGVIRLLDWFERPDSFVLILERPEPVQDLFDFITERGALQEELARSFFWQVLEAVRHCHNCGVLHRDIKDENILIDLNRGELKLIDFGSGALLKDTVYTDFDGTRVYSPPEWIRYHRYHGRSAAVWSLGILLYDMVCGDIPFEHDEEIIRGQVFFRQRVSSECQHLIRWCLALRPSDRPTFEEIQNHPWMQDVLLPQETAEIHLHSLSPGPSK
Experiment: Pim-1 enzyme assay (HTRF, phosphorylation of biotinylated-BAD (S112) peptide)
Type: biochemical
Details: enzyme assay, Pim-1; read-out: Pim_1_IC50
A value of pIC50 is the negative decimal logarithm of a concentration given in moles per litre.

-- ask State its pIC50 for this molecule: `COc1cc(-c2ccc3[nH]nc(-c4cncc(N5CCC(N)CC5)n4)c3c2)c(F)cn1`
-- reply 8.30

-- ask Provide measured pIC50 value, entry: `CC(C)Oc1cncc(-c2ccc3[nH]cc(-c4cncc(N[C@@H]5CCCNC5)n4)c3c2)n1`
-- reply 8.40

-- ask For the molecule `c1cc2[nH]nc(-c3cncc(O[C@@H]4CCCNC4)n3)c2cc1-c1cncc(NC2CC2)n1` , report pIC50.
-- reply 9.00

-- ask For the molecule `CN1CCOc2cc(-c3ccc4[nH]nc(-c5cncc(N6CCC(N)CC6)n5)c4c3)cnc21` , give its measured pIC50 value.
-- reply 8.70

====

Target: Pim-1 stably transfected into the U2OS human osteogenic sarcoma line (Homo sapiens, UniProt P11309)
Construct: expressed in transfected cells; host or cells: U2OS human osteogenic sarcoma line
Sequence (P11309 whole entry): as the sequence (P11309 whole entry) above
Assay: Pim cell assay, phospho-BAD normalized against total BAD, U2OS stably transfected with Pim-1
Assay type: cell-based
Settings: U2OS stably transfected with Pim-1; phospho-BAD normalized against total BAD; 29 min incubation; read-out: Pim1_Cell_IC50_
Protocol: The cell lines used in the assay were generated by the stable transfection of either Pim-1 or Pim-2 into the U2OS human osteogenic sarcoma line. […] These prepared lysates were then assayed for phospho and total BAD according to the manufacturer's protocols (Meso Scale Diagnostics, Cat# K15103C-3 & # K15103D-3). The plates were read on the MSD Sector Imager 6000, and results were calculated according to the assay protocols ((% Phosphoprotein=((2×Phospho signal)/(Phospho signal+Total signal))×100)).
Binary call on IC50 with cut-off 0.9 µM: strictly below means TRUE, and equality or higher means FALSE.

-- ask Answer whether the compound NC1CCN(c2cncc(-c3n[nH]c4ccc(-c5nccc6[nH]ccc56)cc34)n2)CC1 [Example 507] has IC50 strictly less than 0.9 µM
-- reply FALSE

-- ask Threshold test, IC50 < 0.9 µM: Oc1cc(-c2c[nH]c3ccc(-c4c(F)cccc4F)cc23)nc(N2CCOCC2)n1 [Example 483]
-- reply TRUE

-- ask Please determine if CC(O)c1cccc(-c2ccc3[nH]nc(-c4cncc(O[C@@H]5CCCNC5)n4)c3c2)c1 (stereo partly drawn) [Example 367] is below 0.9 µM in terms of IC50.
-- reply TRUE

-- ask is_below(IC50, 0.9 µM) for N#CC1(c2cccc(-c3ccc4[nH]cc(-c5cncc(O[C@@H]6CCCNC6)n5)c4c3)c2)CCC1 [Example 350] ?
-- reply FALSE

-- ask Say whether its IC50 is strictly beneath 0.9 µM. Entry: COc1cccc(-c2ccc3[nH]cc(-c4cncc(O[C@@H]5CCCNC5)n4)c3c2)c1 [Example 320]
-- reply TRUE

-- ask Report whether reported IC50 is lower than 0.9 µM (strictly) for c1cc2[nH]cc(-c3cncc(C4CC4)n3)c2cc1-c1cncc(C2CC2)n1 [Example 245]
-- reply FALSE

-- ask API: query returns whether the compound falls strictly under 0.9 µM in IC50. Query: CC(C)Nc1nc(-c2c[nH]c3ccc(-c4cncc(C5CC5)n4)cc23)cc(=O)[nH]1 [Example 287]
-- reply FALSE

-- ask I wonder whether c1cc2[nH]nc(-c3cncc(NC4CCNCC4)n3)c2cc1-c1cncc(C2CC2)n1 [Example 369] has IC50 below 0.9 µM. Can you tell?
-- reply TRUE

-- ask Does OCc1ccc(-c2ccc3[nH]cc(-c4cncc(O[C@@H]5CCCNC5)n4)c3c2)cc1 [Example 316] have IC50 strictly under 0.9 µM?
-- reply TRUE
